- subjectOfTest: T1, hIL-4Rα on cells (human, UniProt P24394 26-825)
- T1 sequence: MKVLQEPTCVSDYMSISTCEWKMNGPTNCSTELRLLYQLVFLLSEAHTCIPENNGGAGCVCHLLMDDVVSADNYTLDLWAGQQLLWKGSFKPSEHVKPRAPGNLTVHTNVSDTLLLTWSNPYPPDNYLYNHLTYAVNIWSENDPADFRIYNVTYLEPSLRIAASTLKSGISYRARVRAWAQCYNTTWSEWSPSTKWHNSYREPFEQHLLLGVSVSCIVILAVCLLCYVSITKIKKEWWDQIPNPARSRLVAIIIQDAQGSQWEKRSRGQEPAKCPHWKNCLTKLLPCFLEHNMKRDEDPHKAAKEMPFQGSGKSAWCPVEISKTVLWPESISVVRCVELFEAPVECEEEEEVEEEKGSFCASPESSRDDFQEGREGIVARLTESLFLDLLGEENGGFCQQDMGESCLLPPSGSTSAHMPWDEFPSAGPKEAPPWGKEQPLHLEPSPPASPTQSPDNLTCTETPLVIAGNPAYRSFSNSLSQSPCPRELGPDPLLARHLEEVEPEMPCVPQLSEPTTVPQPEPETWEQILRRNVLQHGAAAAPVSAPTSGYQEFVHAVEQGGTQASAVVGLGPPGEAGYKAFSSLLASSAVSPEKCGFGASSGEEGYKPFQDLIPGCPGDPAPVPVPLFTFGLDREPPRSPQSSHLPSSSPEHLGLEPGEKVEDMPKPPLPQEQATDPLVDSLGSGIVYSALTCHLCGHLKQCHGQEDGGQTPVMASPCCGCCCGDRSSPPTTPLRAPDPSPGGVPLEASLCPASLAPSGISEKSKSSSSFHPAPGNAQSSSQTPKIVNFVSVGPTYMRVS
- experimentSummary: cell-based or functional assay
experimentalReadout: Relative Inhibition of IL-4 induced pSTAT6 IC50

Respectfully, I request Relative Inhibition of IL-4 induced pSTAT6 IC50 for each entry included below.
1. Construct 28 (mAb436) (antibody, IgG4, V domains shown, VH/VL only) VH: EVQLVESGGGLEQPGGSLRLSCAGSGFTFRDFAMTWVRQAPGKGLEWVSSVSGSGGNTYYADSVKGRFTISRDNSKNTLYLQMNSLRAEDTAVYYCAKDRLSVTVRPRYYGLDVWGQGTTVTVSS VL: DIVMTQSPLSLPVTPGEPASISCTSSQSLLYSIGYNYVDWYLQKSGQSPQLLIYLGNKRASGVPDRFSGSGSGTDFTLKISRVEAEDVGFYYCMQSLQTPYTFGQGTKLEIK
2. Construct 13 (mAb422) (antibody, IgG4, V domains shown, VH/VL only) VH: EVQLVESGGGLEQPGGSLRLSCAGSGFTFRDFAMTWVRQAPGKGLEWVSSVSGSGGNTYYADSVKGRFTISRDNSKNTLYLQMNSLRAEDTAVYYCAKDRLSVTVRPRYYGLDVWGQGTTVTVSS VL: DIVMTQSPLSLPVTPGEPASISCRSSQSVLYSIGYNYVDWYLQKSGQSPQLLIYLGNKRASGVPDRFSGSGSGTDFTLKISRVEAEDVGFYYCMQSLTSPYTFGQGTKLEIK

OUT:
0.999 relative to dupilumab
0.415 relative to dupilumab

Provenance of the data: patent US20260193366A1
